target: Metabotropic glutamate receptor 2 (Homo sapiens); experiment: Displacement of [3H]-341495 binding to membranes expressing recombinant human Metabotropic glutamate receptor 2
Experimental Endpoint: Ki (nM)
Answers are plain numbers, in nM.

Completed entries (count: 2):
Molecule: N[C@@]1(C(=O)O)CC[C@H]2[C@H](C(=O)O)[C@H]21
Units: nM
Ki: 74
--
Molecule: C[C@@H]1C[C@@](N)(C(=O)O)[C@@H]2[C@@H](C(=O)O)[C@@H]21 (stereo in doubt; 13)
Units: nM
Ki: 409

Now for a further molecule.
Req: Sample C[C@@H]1C[C@@](N)(C(=O)O)[C@@H]2[C@@H](C(=O)O)[C@@H]21 (stereo in doubt; (+)-13) — what was its Ki?
Resp: 165

* * *

Record form. Attribute: IC50. Fill in for each entry.
biological target: Metabotropic glutamate receptor 3 (Homo sapiens, UniProt Q14832); assay: Evaluation of the functional effect on cAMP responses in RGT cells expressing human mGlu3 receptor
Sequence (Q14832 whole entry): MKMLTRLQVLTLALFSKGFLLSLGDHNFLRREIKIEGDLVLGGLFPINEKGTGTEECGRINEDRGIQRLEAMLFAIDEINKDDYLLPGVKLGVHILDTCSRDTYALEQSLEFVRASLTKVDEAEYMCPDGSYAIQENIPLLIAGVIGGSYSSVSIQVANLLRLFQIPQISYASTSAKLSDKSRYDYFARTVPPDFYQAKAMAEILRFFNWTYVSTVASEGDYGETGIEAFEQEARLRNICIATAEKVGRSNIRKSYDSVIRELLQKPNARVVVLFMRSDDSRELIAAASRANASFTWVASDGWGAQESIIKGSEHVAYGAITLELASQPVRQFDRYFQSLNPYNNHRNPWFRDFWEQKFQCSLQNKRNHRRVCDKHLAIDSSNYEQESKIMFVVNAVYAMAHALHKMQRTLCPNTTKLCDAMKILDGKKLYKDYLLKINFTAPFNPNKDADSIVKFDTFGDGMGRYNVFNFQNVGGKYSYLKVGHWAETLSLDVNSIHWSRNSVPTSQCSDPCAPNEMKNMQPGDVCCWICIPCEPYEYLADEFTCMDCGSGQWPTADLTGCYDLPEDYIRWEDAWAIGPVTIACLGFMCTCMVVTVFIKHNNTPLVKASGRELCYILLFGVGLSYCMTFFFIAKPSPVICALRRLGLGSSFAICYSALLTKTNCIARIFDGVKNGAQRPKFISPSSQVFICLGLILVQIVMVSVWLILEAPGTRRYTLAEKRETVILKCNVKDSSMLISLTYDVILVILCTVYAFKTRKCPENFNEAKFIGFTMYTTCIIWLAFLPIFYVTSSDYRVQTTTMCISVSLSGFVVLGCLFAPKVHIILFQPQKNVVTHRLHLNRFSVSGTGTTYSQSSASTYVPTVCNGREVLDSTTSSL
Numbers only, in µM.

Compound: C[C@@H]1C[C@@](N)(C(=O)O)[C@@H]2[C@@H](C(=O)O)[C@@H]21 (stereo in doubt; 13)
System Name: Metabotropic glutamate receptor 3 (Homo sapiens, UniProt Q14832)
Units: µM
IC50: 2.94

Now for a further compound.
Req: Sample C[C@@H]1C[C@@](N)(C(=O)O)[C@@H]2[C@@H](C(=O)O)[C@@H]21 (stereo in doubt; (+)-13) — what was its IC50?
Resp: 1.05

* * *

target: Metabotropic glutamate receptor 2 (Homo sapiens, UniProt Q14416); assay: Evaluation of the functional effect on cAMP responses in RGT cells expressing human mGlu2 receptor; assay type: cell-based
Sequence (Q14416 whole entry): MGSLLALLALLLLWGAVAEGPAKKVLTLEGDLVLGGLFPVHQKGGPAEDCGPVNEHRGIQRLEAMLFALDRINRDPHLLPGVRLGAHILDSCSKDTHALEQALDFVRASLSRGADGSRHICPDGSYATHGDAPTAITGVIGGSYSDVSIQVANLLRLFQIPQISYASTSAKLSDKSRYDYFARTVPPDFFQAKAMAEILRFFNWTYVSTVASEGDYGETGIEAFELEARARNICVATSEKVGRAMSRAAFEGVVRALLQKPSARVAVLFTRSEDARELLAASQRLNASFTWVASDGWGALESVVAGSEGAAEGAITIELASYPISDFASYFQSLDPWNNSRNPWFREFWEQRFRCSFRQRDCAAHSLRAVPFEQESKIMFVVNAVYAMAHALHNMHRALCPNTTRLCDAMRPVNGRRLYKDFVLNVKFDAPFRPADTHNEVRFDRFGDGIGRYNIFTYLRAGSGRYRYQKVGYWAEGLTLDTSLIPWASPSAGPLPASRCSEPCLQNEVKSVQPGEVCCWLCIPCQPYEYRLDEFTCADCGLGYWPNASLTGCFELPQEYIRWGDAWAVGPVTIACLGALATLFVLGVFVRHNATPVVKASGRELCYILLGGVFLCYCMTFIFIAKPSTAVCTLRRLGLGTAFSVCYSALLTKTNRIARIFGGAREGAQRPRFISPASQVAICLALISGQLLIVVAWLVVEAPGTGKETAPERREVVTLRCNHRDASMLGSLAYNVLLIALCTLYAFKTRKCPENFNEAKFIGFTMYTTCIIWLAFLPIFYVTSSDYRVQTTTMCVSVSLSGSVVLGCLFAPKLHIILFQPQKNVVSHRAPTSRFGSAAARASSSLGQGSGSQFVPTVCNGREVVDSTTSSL
Record form. Attribute: pEC50. Fill in for each entry.
Answers are plain numbers, as −log10 of the molar value.

Molecule: C[C@@H]1C[C@@](N)(C(=O)O)[C@@H]2[C@@H](C(=O)O)[C@@H]21 (stereo in doubt; 13)
pEC50: 6.40

Molecule: C[C@H]1C[C@@](N)(C(=O)O)[C@@H]2[C@@H](C(=O)O)[C@@H]21
pEC50: 7.35

Molecule: C[C@@H]1C[C@@](N)(C(=O)O)[C@@H]2[C@@H](C(=O)O)[C@@H]21 (stereo in doubt; (+)-13)
pEC50: 6.79

Now for a further molecule.
Req: Sample `N[C@@]1(C(=O)O)CC[C@H]2[C@H](C(=O)O)[C@H]21` — what was its pEC50?
Resp: 8.00
